// cross-study collection: Ki for Prothrombin (Homo sapiens, UniProt P00734)
measurement_name: Ki (nM)

# annotated cases, reported Ki shown
compound	Ki, nM
Cc1nc2c(Oc3cc(C(=N)N)ccc3O)nc(Oc3cccc(C(=O)N(C)C)c3)nc2n1Cc1ccccc1	710
N=C(N)NCCC[C@@H]1NC(=O)C2CCCN2C(=O)[C@@H](NC(=O)Cc2ccccc2)CNC(=O)/C=C/[C@H](Cc2ccc(O)cc2)NC(=O)[C@@H](Cc2ccccc2)NC(=O)C1=O (some centres not stated)	3.1

a. N=C(N)c1ccc(CNC(=O)[C@@H]2Cc3ccc(cc3)OCCCCOc3ccc(cc3)C[C@@H](NS(=O)(=O)Cc3ccccc3)C(=O)N2)cc1
b. CCNC(=O)NCCC1CCN(C(=O)[C@H](Cc2nc3ccccc3s2)NS(=O)(=O)c2cccc3c2NCC(C)(C)C3)CC1
[in] Which of the two items, a and b , has the greater recorded Ki? Lab note: record the label of whichever item you select.
[out] a

---

// cross-study collection: Ki for Prothrombin (Homo sapiens, UniProt P00734)
measurement_name: Ki (µM)

                                   molecule                               measured_on  readout_unit  value
0  N=C(N)N1CCC[C@H](CNC(=O)[C@@H](Cc2c[nH]c3ccccc23)NS(=O)(=O)c2ccc3ccccc3c2)C1  Prothrombin (Homo sapiens, UniProt P00734)            µM   0.13

I. CCOC(=O)C(=O)N(Cc1ccc(F)c(F)c1)c1ccc2c(c1)N(C)CC(C)(COc1ccc(C(=N)N)cc1)O2 (configuration not stated)
II. N=C(N)Nc1ccc(CNC(=O)N2CCN(C(=O)OCC34CC5CC(C3)CC(COC(=O)N3CCN(C(=O)NCc6ccc(NC(=N)N)cc6)CC3)(C5)C4)CC2)cc1
III. Cc1ccc(S(=O)(=O)NC(=O)N2CCCC2C(=O)Nc2ccc(S(=O)(=O)NN=C(N)N)cc2)cc1 (configuration not stated)
IV. Nc1noc2ccc(-n3nc(C(F)(F)F)c4c3C(=O)N(c3ccc(-c5ccccc5CN5CCOCC5)cc3)CC4)cc12
[in] Highest Ki first, then in falling order down to the smallest. Order the labels as requested and give them as your answer.
[out] II, I, IV, III

---

// cross-study collection: Ki for Prothrombin (Homo sapiens)
measurement_name: Ki (µM)

# annotated cases, reported Ki shown
molecule	measurement_name	readout_unit	value
O=C(Cn1c(Cl)cnc(NCC(F)(F)c2ccccn2)c1=O)NCc1ccccc1-c1c[nH]cn1	Ki	µM	0.0042
COC(=O)CNC(=O)CC(CCc1ccc(C(=N)N)cc1)c1cccc(C(=N)N)c1 (stereo unspecified)	Ki	µM	12.6

A. N=C(N)NS(=O)(=O)c1cccs1
B. CCOc1cc(O[C@H]2CC[C@H](O)CC2)cc(C(Nc2ccc(C(=N)N)cc2)C(=O)O)c1 (stereo partly specified)
[in] Which of the two items, A and B , has the greater recorded Ki? Lab note: record the label of whichever item you select.
[out] B
(B: 5.5 µM, A: 0.185 µM)

a. N=C(N)c1ccc2ncn(CC(=O)c3ccc(-c4ccccc4)cc3)c2c1
b. C/C(=N\NC(=N)N)c1cc(NC(=O)[C@H](N)CCCNC(=N)N)cc(/C(C)=N/NC(=N)N)c1
[in] Which of the two items, a and b , has the greater recorded Ki? Lab note: record the label of whichever item you select.
[out] b

1. COC(=O)CC(CCc1ccc(NS(=O)(=O)c2ccccc2)cc1)c1cccc(C(=N)N)c1 (stereo unspecified)
2. Cc1cn(C)c(-c2cccc(Oc3cc(C(=O)O)cc(Oc4cc(C(=N)N)ccc4O)n3)c2)n1
3. Cc1cc(OCCCN=C(N)N)cc(OS(=O)(=O)c2ccccc2Cl)c1
4. N=C(N)c1ccc(CNC(=O)[C@@H]2CCCN2C(=O)CCc2ccccc2)cc1
5. N=C(N)c1cccc(C[C@H](NS(=O)(=O)c2ccc3c(c2)C(=O)c2ccccc2C3=O)C(=O)N2CCC(C(=O)NCCN)CC2)c1
[in] Highest Ki first, then in falling order down to the smallest. Order the labels as requested and give them as your answer.
[out] 1, 2, 5, 4, 3
(1: 1.75 µM, 2: 0.88 µM, 5: 0.42 µM, 4: 0.22 µM, 3: 0.033 µM)

---

// cross-study collection: pKi for Prothrombin (Homo sapiens, UniProt P00734)
pKi: −log10 of the molar value.
measurement_name: pKi

In [3]: df
Out[3]:
                                   compound                               measured_on  measurement_name  value
0  N=C(N)N1CCCC(CNC(=O)[C@@H](Cc2ccccc2)NS(=O)(=O)c2ccc3ccccc3c2)C1 (stereo not given in full)  Prothrombin (Homo sapiens, UniProt P00734)               pKi   7.33

A. Cc1cnc(NCCc2ccccc2)c(=O)n1CC(=O)NCc1ccc(C(=N)NO)s1
B. COC(=O)[C@H](Cc1cccc(C(=N)N)c1)[C@@H](CC(C)C)NC(=O)c1ccc(-c2cccc(CN)c2)cc1
C. Cc1cc(OCC2CCN(C(=N)N)CC2)cc(OS(=O)(=O)c2ccccc2Cl)c1
D. N=C(N)c1ccc(CNC(=O)[C@@H]2Cc3ccc(cc3)NC(=O)CCN3CCCN(CCC(=O)Nc4ccc(cc4)C[C@@H](NS(=O)(=O)Cc4ccccc4)C(=O)N2)CC3)cc1
[in] Highest pKi first, then in falling order down to the smallest. Order the labels as requested and give them as your answer.
[out] C, A, B, D
(C: 8.34, A: 7.51, B: 6.00, D: 4.95)

---

// cross-study collection: Ki for Prothrombin (Homo sapiens, UniProt P00734)
measurement_name: Ki (nM)

In [3]: df
Out[3]:
                                   compound  value
0  N=C(N)c1ccc(CNC(=O)[C@H](Cc2cccc3ccccc23)NC(=O)[C@@H](CC2CCCCC2)NCC(=O)O)cc1   6000
1  N=C(N)c1cccc(C[C@H](NS(=O)(=O)c2ccc3ccccc3c2)C(=O)N2CCC(CCN)CC2)c1    210
2  COc1ccc(C[C@@H](CO)Nc2ccncc2S(=O)(=O)N[C@@H](Cc2ccccc2)C(=O)N2CCC(CCF)CC2)cc1     85

1. N=C(N)c1ccc2scc(C3(C(=O)Nc4ccc(-n5cnc6ccccc65)cc4)CC3)c2c1.O=C(O)C(F)(F)F
2. N=C(N)c1ccc(Oc2cc(Oc3ccc(CN)cc3)cc(C(=O)N[C@H]3CC[C@H](N)CC3)c2)cc1
[in] Could you determine which record has the numerically smaller Ki? Candidates: 1 and 2 Lab note: record the label of whichever item you select.
[out] 1
(1: 390 nM, 2: 3130 nM)

a. Cc1cc(OCC2CCCN(C(=N)N)C2)cc(OS(=O)(=O)c2ccccc2Cl)c1 (configuration not stated)
b. CC(C)(C)OC(=O)Nc1ccc2c(c1)cc(C(=O)NCc1ccc([N+](C)(C)C)cc1)n2Cc1cccc(C(=N)N)c1
c. N[C@H](Cc1ccccc1)C(=O)N1CCC[C@H]1C(=O)NCc1cccc(Cl)c1
d. N=C(N)c1ccc(/C=C2\CC(c3ccccc3)C/C(=C\c3ccc(C(=N)N)cc3)C2=O)cc1 (configuration not stated)
e. COC(=O)CC(CCc1ccc(C(=O)OC)cc1)c1cccc(C(=N)N)c1 (configuration not stated)
[in] Number of compounds to sort: 5. Sort criterion: Ki, ascending. Order the labels as requested and give them as your answer.
[out] c, a, d, e, b

A. CC[C@@H](N)CN1CCC[C@H]1C(=O)NCc1ccc(C(=N)N)cc1
B. COc1cccc(CNC(=O)Cn2c(Cl)cnc(NCC(F)(F)c3cccc[n+]3[O-])c2=O)c1
[in] Could you determine which record has the numerically smaller Ki? Candidates: A and B Lab note: record the label of whichever item you select.
[out] B

---

// cross-study collection: Ki for Prothrombin (Homo sapiens)
measurement_name: Ki (nM)

# annotated cases, reported Ki shown
                                   molecule  measurement_name  readout_unit  value
0  COC(=N)NS(=O)(=O)c1ccc(NC(=O)C2CCCN2C(=O)[C@H](Cc2ccccc2)NC(=O)NS(=O)(=O)c2ccc(C)cc2)cc1 (stereo not given in full)                Ki            nM     18
1  N=C(N)NCCC[C@H](NS(=O)(=O)c1cccc(C(F)(F)F)c1)C(=O)N1CCOCC1                Ki            nM    900
2  Cc1cnc(NCC(F)(F)c2ccccc2)c(=O)n1CC(=O)NCc1ccc2[nH]nc(N)c2c1                Ki            nM    4.1
3  Cc1cc(OCCCONC(=N)N)cc(C(=O)N(Cc2ccccn2)CC2CC2)c1                Ki            nM     86
4  Cc1c(F)c(Oc2cccc(C(=N)N)c2)nc(Oc2ccc(Cl)c(N(C)C)c2)c1F                Ki            nM   5300

I. N=C(N)NS(=O)(=O)c1ccc2ccccc2c1
II. COc1ccc(S(=O)(=O)N=C(N)N)cc1
III. COC(=O)CC1(C(=O)Nc2ccc(-c3cccc(S(N)(=O)=O)c3)cc2)CC(c2cccc(C(=N)N)c2)=NO1 (stereo not given)
IV. CC(C)(CN(CC(=O)NC(CCCCN)B(O)O)C(=O)CCc1ccccc1)c1ccccc1 (stereo not given)
[in] Number of molecules to sort: 4. Sort criterion: Ki, ascending. Order the labels as requested and give them as your answer.
[out] IV, I, II, III
(IV: 0.36 nM, I: 132 nM, II: 240 nM, III: 3100 nM)
